- test-system: T1, Human CXCR2 (human, UniProt P25025 1-360)
- T1 construct: Some cell lines carry an N-terminal 3xHA tag; also called hCXCR2; huCXCR2
- T1 sequence: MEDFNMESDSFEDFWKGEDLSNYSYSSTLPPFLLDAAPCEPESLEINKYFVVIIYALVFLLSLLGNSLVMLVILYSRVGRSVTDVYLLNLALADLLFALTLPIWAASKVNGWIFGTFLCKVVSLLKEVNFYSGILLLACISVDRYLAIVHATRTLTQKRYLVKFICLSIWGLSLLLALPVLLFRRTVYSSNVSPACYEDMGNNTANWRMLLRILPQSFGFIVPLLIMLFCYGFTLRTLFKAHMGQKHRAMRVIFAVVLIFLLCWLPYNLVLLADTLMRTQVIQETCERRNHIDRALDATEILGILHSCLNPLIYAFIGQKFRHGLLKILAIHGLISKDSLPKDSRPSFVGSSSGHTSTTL
- assay-protocol: FACS competition vs 3 nM FMAT-Blue Gro-α
Please go through the items and note down their % inhibition of max.
Numbers only, in %.

binder="CXCR20022 (VHH, Bivalent: two VHH joined by a GlySer linker; also called 163D2-35GS-163D2; not shown: C-terminal c-myc tag and His6 tag coded by pAX100) EVQLVESGGGLVQAGGSLRLSCAASGRTFSDYAMGWFRQAPGKEREFVAAITWNGGRVFYTASVKGRFTISRDNAKNTMYLQMNSLKPEDTAVYYCAADKDRRTDYLGHPVAYWGQGTQVTVSSGGGGSGGGGSGGGGSGGGGSGGGGSGGGGSGGGGSEVQLVESGGGLVQAGGSLRLSCAASGRTFSDYAMGWFRQAPGKEREFVAAITWNGGRVFYTASVKGRFTISRDNAKNTMYLQMNSLKPEDTAVYYCAADKDRRTDYLGHPVAYWGQGTQVTVSS" reported_value=100
binder="CXCR20013 (bispecific antibody, Biparatopic: two VHH joined by a GlySer linker; also called 2B2-35GS-97A9; not shown: C-terminal c-myc tag and His6 tag coded by pAX100) EVQLVESGGELVQPGGSLRLSCAASGSILTINAMGWYRQAPGKQRELVVRRTRGGSTTYQDSVKGRFTISADIAKKTMYLQMNSLKPEDTAVYYCMLDDRGGVYWGQGTQVTVSSGGGGSGGGGSGGGGSGGGGSGGGGSGGGGSGGGGSEVQLVESGGGLVQPGGSLRLSCVASGSIVRINTMGWYRQTPGKQRELVADITSGGNINYIDAVKGRFTISRDNTKNTVYLQMNSLKPEDTAVYYCNAEIVVLVGVWTQRARTGNYWGQGTQVTVSS" reported_value=90
binder="CXCR20035 (other, Biparatopic: two VHH joined by a GlySer linker; also called 54B12-35GS-163E3; 54B12-163E3; not shown: C-terminal c-myc tag and His6 tag coded by pAX100) EVQLVESGGGLVQAGGSLTLSCAVSGSTFRINTMGWYRRAPGKQRELVAARDRGGYINYVDSVKGRFTVSRDNAKPTMYLQMNSLKPEDTAVYYCHAGTQDRTGRNFDRWGQGTQVTVSSGGGGSGGGGSGGGGSGGGGSGGGGSGGGGSGGGGSEVQLVESGGGLVQPGGSLRLSCVASGRIFSSNAMGWFRQAPGKEREFVAAITWRSGGSAYYADSAKGRFTISRDNAKNTVYLQMNSLKPEDTAVYYCAAGGSSWLSFPPDYWGQGTQVTVSS" reported_value=99
binder="CXCR20016 (other, Two different VHH joined by a GlySer linker; also called 137B7-35GS-2B2; not shown: C-terminal c-myc tag and His6 tag coded by pAX100) EVQLVESGGGLVQPGGSVRLSCVASGIIFRLSALGWTRQGPGKAREWVAGINSDGTTNYADPVKGRFTISRDNAKNTIYLHMDMLKPEDTAVYYCASGKYRGQGTQVTVSSGGGGSGGGGSGGGGSGGGGSGGGGSGGGGSGGGGSEVQLVESGGELVQPGGSLRLSCAASGSILTINAMGWYRQAPGKQRELVVRRTRGGSTTYQDSVKGRFTISADIAKKTMYLQMNSLKPEDTAVYYCMLDDRGGVYWGQGTQVTVSS" reported_value=100

API: the following record is the query input.
[in] Need % inhibition of max of CXCR20030 (other, Biparatopic: two VHH joined by a GlySer linker; also called 163D2-35GS-54B12; 163D2-54B12; not shown: C-terminal c-myc tag and His6 tag coded by pAX100) EVQLVESGGGLVQAGGSLRLSCAASGRTFSDYAMGWFRQAPGKEREFVAAITWNGGRVFYTASVKGRFTISRDNAKNTMYLQMNSLKPEDTAVYYCAADKDRRTDYLGHPVAYWGQGTQVTVSSGGGGSGGGGSGGGGSGGGGSGGGGSGGGGSGGGGSEVQLVESGGGLVQAGGSLTLSCAVSGSTFRINTMGWYRRAPGKQRELVAARDRGGYINYVDSVKGRFTVSRDNAKPTMYLQMNSLKPEDTAVYYCHAGTQDRTGRNFDRWGQGTQVTVSS , thanks.
[out] 99.5
